- assay comment: chemical genetic growth profiling, strain panel (AID 1159580);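 also: tested at 20 µM; growth read once vehicle control cultures reached saturation at 30 °C; 1 = growth at the plate median or of vehicle wells; lower values mean less growth of the strain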
- test parameters: S. cerevisiae deletion strains, growth OD, locus YDR150W, strain NUM1, stronger effect = lower value
Out of some 5,500 compounds screened, about 2,000 (36%) were called active. Another 18% or so got no clear call; they are omitted. The list shows a part of the results.
measurement name: normalized growth
Respond using a number only.

Recorded normalized growth, per entry:
COC(=O)Cc1nc(NC(=O)c2ccccc2)sc1C: 0.994
CC(C)(O)CC[C@@H](O)[C@](C)(O)C1CC[C@@]2(O)C3=CC(=O)C4C[C@@H](O)[C@@H](O)C[C@]4(C)C3CC[C@]12C (some centres undefined): 1.01
CCCCC(=O)N(Cc1ccc(-c2ccccc2-c2nn[nH]n2)cc1)[C@H](C(=O)O)C(C)C: 0.972
CSCCC(NC=O)C(=O)NC(CC(C)C)C(=O)NC(Cc1ccccc1)C(=O)O (centres undefined): 1.01
O=c1nc(-c2ccccc2)nc(-c2ccccc2)[nH]1: 0.993
CC1(C)C[C@@H]2C(=O)CC[C@H]3O[C@]3(C)CC[C@H]21: 1.01
C[C@]12CCC3C(CC[C@H]4CC(=O)CC[C@]34C)C1CCC2=O (some centres undefined): 1.01
CC[C@@H]1Cc2cc(O)ccc2C2=C1c1ccc(O)cc1C[C@H]2CC: 0.996

Task: // lookup normalized growth for O=C1CCC(=O)N1CNc1ccccc1OC(F)(F)F
Output: 1.02

Task: // lookup normalized growth for S=c1nc(-c2ccccc2)[nH][nH]1
Output: 1.01

Task: // lookup normalized growth for O=c1ccc2ccc(O)c(O)c2o1
Output: 0.998
